Tgt: ROCK I (Homo sapiens, UniProt Q13464)
Sequence (Q13464 whole entry): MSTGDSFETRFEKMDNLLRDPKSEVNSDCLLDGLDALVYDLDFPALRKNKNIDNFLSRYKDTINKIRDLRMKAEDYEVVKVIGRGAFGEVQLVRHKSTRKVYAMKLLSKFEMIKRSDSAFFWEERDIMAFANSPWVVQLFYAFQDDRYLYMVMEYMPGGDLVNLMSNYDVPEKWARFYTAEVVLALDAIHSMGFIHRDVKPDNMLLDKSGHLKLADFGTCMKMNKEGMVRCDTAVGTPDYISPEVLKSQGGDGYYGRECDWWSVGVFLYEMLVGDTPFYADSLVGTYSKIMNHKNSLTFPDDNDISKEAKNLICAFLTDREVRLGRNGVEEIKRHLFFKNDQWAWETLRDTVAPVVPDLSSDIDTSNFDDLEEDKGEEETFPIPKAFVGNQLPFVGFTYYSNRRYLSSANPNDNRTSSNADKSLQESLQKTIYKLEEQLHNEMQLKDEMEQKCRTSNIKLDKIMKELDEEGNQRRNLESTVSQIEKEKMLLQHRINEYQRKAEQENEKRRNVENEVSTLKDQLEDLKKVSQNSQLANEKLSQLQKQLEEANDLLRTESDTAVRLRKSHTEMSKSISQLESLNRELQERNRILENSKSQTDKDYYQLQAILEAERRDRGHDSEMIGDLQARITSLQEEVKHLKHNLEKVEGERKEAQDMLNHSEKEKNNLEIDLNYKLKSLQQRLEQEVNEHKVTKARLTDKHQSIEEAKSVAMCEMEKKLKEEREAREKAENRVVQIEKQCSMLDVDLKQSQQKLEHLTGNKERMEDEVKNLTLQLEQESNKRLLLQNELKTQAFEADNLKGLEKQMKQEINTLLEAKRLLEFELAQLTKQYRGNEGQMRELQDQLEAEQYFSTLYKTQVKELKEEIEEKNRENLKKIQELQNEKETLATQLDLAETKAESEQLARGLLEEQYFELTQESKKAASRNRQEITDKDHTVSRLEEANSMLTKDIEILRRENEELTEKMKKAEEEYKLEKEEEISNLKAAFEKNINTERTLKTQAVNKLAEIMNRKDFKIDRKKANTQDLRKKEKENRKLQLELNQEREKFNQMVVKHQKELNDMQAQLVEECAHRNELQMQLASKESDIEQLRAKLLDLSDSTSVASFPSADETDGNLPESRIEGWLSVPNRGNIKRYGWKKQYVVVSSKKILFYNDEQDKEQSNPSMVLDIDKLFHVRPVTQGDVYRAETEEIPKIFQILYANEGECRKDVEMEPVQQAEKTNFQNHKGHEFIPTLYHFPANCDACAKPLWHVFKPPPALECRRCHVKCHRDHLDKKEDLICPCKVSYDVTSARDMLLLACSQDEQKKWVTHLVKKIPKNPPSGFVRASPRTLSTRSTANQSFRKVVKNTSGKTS
Assay Remarks: ROCK-I inhibition assay (radioactive enzyme assay, MBP substrate)
Assay type: biochemical
Details: Table 6; enzyme inhibition data (Ki)
compounds and their reported Ki

(Q) Check the records and state Ki for CCCOC(=O)N1CCCC(Nc2c(Cl)cnc3[nH]ccc23)C1 (stereo not drawn) [compound 174]
(A) 500 to 5000 nM

(Q) Check the records and state Ki for O=S(=O)(C1CC1)N1CC[C@H](Nc2c(Cl)cnc3[nH]ccc23)C1 [compound 179]
(A) > 4000 nM

(Q) Check the records and state Ki for C=CCN(C(=O)c1csc(-c2ccnc3[nH]ccc23)n1)[C@@H](C)c1ccccc1 [compound 408]
(A) < 500 nM

(Q) Check the records and state Ki for COc1cccc(Cl)c1-c1ccnc2[nH]ccc12 [compound 245]
(A) > 4000 nM

(Q) Check the records and state Ki for Clc1ccccc1Nc1c(Cl)cnc2[nH]ccc12 [compound 158]
(A) 500 to 5000 nM

(Q) Check the records and state Ki for O=C(NCCC(F)(F)F)c1ccc(-c2ccnc3[nH]ccc23)cc1 [compound 268]
(A) < 500 nM

(Q) Check the records and state Ki for Clc1cnc2[nH]ccc2c1N[C@@H]1C[C@H]2CC[C@@H]1C2 [compound 150]
(A) < 500 nM

(Q) Check the records and state Ki for CCNC(=O)c1cc(-c2ccnc3[nH]ccc23)c[nH]1 [compound 282]
(A) < 500 nM

(Q) Check the records and state Ki for CCN(Cc1ccccc1)C(=O)c1csc(-c2ccnc3[nH]ccc23)n1 [compound 404]
(A) < 500 nM

These entries and their values trace back to patent US8921376B2.
